pKi: −log10 of the molar value.
Before we begin, note that these pKi values for Carbonic anhydrase 7 (Homo sapiens) originate from several publications.
ASSAY_METRIC: pKi

Worked set:
> print(dat)
                                   compound  assay.metric  result
1                               NCCNCCCNCCN           pKi    4.24
2                     COc1cc2ccc(=O)oc2cc1O           pKi    5.06
3                CCCCCCNS(=O)(=O)NCCC(=O)OC           pKi    9.52
4  COc1ccc(/C=C(\C(C)=O)C(=O)Nc2ccc(S(N)(=O)=O)cc2)cc1           pKi    8.51
5  NS(=O)(=O)c1ccc(NC(=O)CN2C(=O)NC3(CCCCC3)C2=O)cc1           pKi    8.89

I. NS(=O)(=O)c1ccc(NC(=O)/C(Cl)=N/Nc2ccc(Cl)cc2)cc1
II. Cc1ccc(C)c2c1NC(=O)NS2(=O)=O
III. COc1cc2ccc(=O)oc2c(OC)c1OC
Descending sort on pKi required. When ranking, write the labels in the order the request describes.
I, II, III
